assay-protocol: Evaluation of pharmacokinetics of the compound in mice
Assay type: in vivo
condition-context: male, mouse, plasma; Balb/c mice, intragastric (oral) administration 1.0 mg/kg; read-out: Concentration integral AUC
measured-endpoint: AUC (µM·h)
Numbers only, in µM·h.

Per the records, this compound ( `Cc1nc(N(C)C(=O)[C@@H]2Cc3ccc(-c4ccccn4)cc3C2)sc1S(N)(=O)=O` ) has AUC equal to 24.4

###

assay-protocol: Evaluation of pharmacokinetics of the compound in mice
Assay type: in vivo
condition-context: male, mouse, plasma; Balb/c mice, single intravenous injection 1.0 mg/kg; read-out: Clearance rate
measured-endpoint: clearance (mL/min/kg)
Give bare numbers, in mL/min/kg.

Per the records, this compound ( `Cc1nc(N(C)C(=O)[C@@H]2Cc3ccc(-c4ccccn4)cc3C2)sc1S(N)(=O)=O` ) has clearance equal to 1.2

###

assay-protocol: Evaluation of pharmacokinetics of the compound in mice
Type: in vivo
condition-context: male, mouse, plasma; Balb/c mice, intragastric (oral) administration 1.0 mg/kg; read-out: Bioavailability F
measured-endpoint: bioavailability (%)
Answers are plain numbers, in %.

Per the records, this compound ( `Cc1nc(N(C)C(=O)[C@@H]2Cc3ccc(-c4ccccn4)cc3C2)sc1S(N)(=O)=O` ) has bioavailability equal to 75
